Item-by-item account of Ki
Target: ZIKV NS2B-NS3 protease (Zika virus)
Construct: directed at the co-expressed ZIKV NS2B-NS3 protease
Sequence (A0A024B7W1 1503-1680): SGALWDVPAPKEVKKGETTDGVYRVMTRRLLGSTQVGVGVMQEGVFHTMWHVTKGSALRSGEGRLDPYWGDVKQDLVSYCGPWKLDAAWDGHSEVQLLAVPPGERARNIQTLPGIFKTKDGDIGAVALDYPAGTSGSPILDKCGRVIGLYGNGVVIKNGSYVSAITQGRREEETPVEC
Sequence (A0A024B7W1 1425-1464): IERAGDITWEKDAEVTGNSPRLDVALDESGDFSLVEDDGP
Experiment: ZIKV NS2B-NS3 protease biochemical FRET assay
Settings: ZIKV NS2B-NS3 Ki (uM), library 1, supplement

Solved entries (count: 6):
- molecule: "O=C(Nc1cc(Cl)cc(C(=O)NCCC2COCCN2)c1)OCc1ccccc1 (stereo not drawn) [ASAP-0022490]"
  Ki: "> 89.3 µM"
- molecule: "NCC12CC(NC(=O)c3cc(Cl)cc(NC(=O)OCc4ccccc4)c3)(CCO1)C2 [ASAP-0021607]"
  Ki: "> 89.3 µM"
- molecule: "CN1CCn2nc(NC(=O)c3cc(Cl)cc(NC(=O)OCc4ccccc4)c3)cc2C1 [ASAP-0020900]"
  Ki: "> 89.3 µM"
- molecule: "O=C(Nc1cc(Cl)cc(C(=O)NCc2n[nH]c3c2CNCC3)c1)OCc1ccccc1 [ASAP-0021271]"
  Ki: "> 89.3 µM"
- molecule: "O=C(Nc1cc(Cl)cc(C(=O)Nc2cnc3n2CCNC3)c1)OCc1ccccc1 [ASAP-0021001]"
  Ki: "> 89.3 µM"
- molecule: "CN(C)Cc1cc(NC(=O)c2cc(Cl)cc(NC(=O)OCc3ccccc3)c2)sn1 [ASAP-0020825]"
  Ki: "> 89.3 µM"

Asked: Report Ki, nothing else, for this molecule: CN1CCc2nc(NC(=O)c3cc(Cl)cc(NC(=O)OCc4ccccc4)c3)sc2C1 [ASAP-0020935]
Given back: > 89.3 µM

Asked: Name the recorded Ki of the molecule listed here: Cn1nc(NC(=O)c2cc(Cl)cc(NC(=O)OCc3ccccc3)c2)c2c1CNC2 [ASAP-0021036]
Given back: > 89.3 µM

Asked: Given the molecule CC(C)N1CCc2nc(NC(=O)c3cc(Cl)cc(NC(=O)OCc4ccccc4)c3)sc2C1 [ASAP-0020812] , write its reported Ki.
Given back: > 89.3 µM

Data provenance: paper doi:10.1101/2025.06.19.660642
